Where do the numbers come from? From patent US20230235054A1.

# system-tested: T1, cynoNectin4-mFc (cyno, UniProt A0A2K5WES1 32-349)
# T1 construct: Immobilized on the SPR chip; also called cyanoNectin4; not shown: mFc (mouse Fc)
# T1 sequence: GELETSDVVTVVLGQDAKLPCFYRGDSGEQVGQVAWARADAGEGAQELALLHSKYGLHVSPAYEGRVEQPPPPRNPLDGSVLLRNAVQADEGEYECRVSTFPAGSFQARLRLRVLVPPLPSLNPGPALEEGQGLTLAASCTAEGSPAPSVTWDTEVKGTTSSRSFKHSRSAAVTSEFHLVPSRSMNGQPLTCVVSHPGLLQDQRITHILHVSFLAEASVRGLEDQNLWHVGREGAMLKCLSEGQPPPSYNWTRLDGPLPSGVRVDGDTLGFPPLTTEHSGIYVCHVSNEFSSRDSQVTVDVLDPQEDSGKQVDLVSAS
# assay-summary: SPR, cynoNectin4-mFc immobilized, pH 6.0
measure: kon (M⁻¹ s⁻¹)
Numbers only here, please. The scale is M⁻¹ s⁻¹.

kon reading for BAP-143-00-06 (antibody, V domains shown, Used as a conjugate with a linker payload (CAB ADC)) VH: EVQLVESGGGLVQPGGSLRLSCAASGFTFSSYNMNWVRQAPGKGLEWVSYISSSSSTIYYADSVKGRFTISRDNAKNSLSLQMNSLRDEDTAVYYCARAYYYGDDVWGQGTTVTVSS VL: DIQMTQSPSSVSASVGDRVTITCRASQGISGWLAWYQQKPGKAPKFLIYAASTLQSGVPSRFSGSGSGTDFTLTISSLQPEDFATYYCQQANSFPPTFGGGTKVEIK : 2.52e+06
